- System: panel of human cancer cell lines (HCT-15, BCPAP, PSN-1, LoVo, 2008, C13*)
- test-details: MTT cytotoxicity test, average over the six cell lines
- Assay type: cell-based
- condition-summary: read-out: Average IC50; average of one compound over the six cell lines
pIC50: −log10 of the molar value.
readout-type: pIC50

> print(dat)
                                   compound  numeric.readout
1  O=C1[O][Pt]2([NH][C@@H]3CCCC[C@H]3[NH]2)[O]C1=O [OXP, oxaliplatin]             5.49
2  [NH2][Pt]([NH2])([Cl])[Cl] [CDDP, Cisplatin]             4.90
3  [NH2][Pt]([NH2])([Cl])([Cl])([O]C(=O)CCCc1ccccc1)[O]C(=O)C(Cl)Cl [CPD, ctc-[Pt(NH3)2(PhB)(DCA)Cl2]]             6.43
